// provenance: PubChem BioAssay (EPA / NIEHS)

- Read-out: Heat shock 70 kDa protein 1 (HSPA1A), gene 3303
- EXPERIMENT NOTES: LTEA_HepaRG_HSPA1A: Life Technologies and Expression Analysis (LTEA) Assay for Heat shock 70 kDa protein 1 (HSPA1A) using HepaRG (AID 2283502)
- CONDITION INFO: mRNA level, 48 h; actives raise or lower the signal
Active and inactive are the calls of the source. How the source made its calls: active means hit-call score of the fitted dose curve at least 0.9, where 1 is the maximum; inactive means score below 0.9.
Choose the fitting class; nothing outside active, inactive is accepted.

[in] What is the recorded call for this molecule in the test? C#C[C@]1(O)CC[C@H]2[C@@H]3CCc4cc(O)ccc4[C@H]3CC[C@@]21C
[out] inactive

[in] What is the recorded call for this molecule in the test? O=C(c1ccc(OCCN2CCCCC2)cc1)c1c(-c2ccc(O)cc2)sc2cc(O)ccc12
[out] active

[in] What is the recorded call for this molecule in the test? COC(=O)c1ccc(C(=O)OC)cc1
[out] inactive

[in] What is the recorded call for this molecule in the test? C=C(C)C(N)=O
[out] inactive

* * *

- EXPERIMENT NOTES: ATG_TA_CIS: Attagene CIS-FACTORIAL HepG2 Assay for human TA Basal Promoter (AID 2282964)
- CONDITION INFO: HepG2 Attagene CIS-factorial TA basal promoter reporter; actives raise or lower the signal
Activity calls are given as the source filed them. The calls were made as follows: active = hit-call score of the fitted dose curve at least 0.9, where 1 is the maximum; inactive = score below 0.9.
Choose the fitting class; nothing outside T (active), F (inactive) is accepted.

[in] What is the recorded call for this compound in the test? NCCN1CCNCC1
[out] F

[in] What is the recorded call for this compound in the test? CCC(=O)OC(C)(C)C1CC=C(C)CC1 (stereo unspecified)
[out] F

[in] What is the recorded call for this compound in the test? O=C1CCCCCCCCCCCC(=O)OCCO1
[out] F

[in] What is the recorded call for this compound in the test? COc1ccc2[nH]cc(CCNC(C)=O)c2c1
[out] F

[in] What is the recorded call for this compound in the test? CC(C)COC(=O)c1ccccc1O
[out] F

[in] What is the recorded call for this compound in the test? CC(C)Cc1ccc(C(C)C(=O)O)cc1 (stereo unspecified)
[out] F

[in] What is the recorded call for this compound in the test? C=CC(=O)OCCCCCC
[out] F

[in] What is the recorded call for this compound in the test? CC(C)=CCCC(C)=CC(=O)O
[out] F

[in] What is the recorded call for this compound in the test? CC/C=C\CCOC(C)OCC (stereo unspecified)
[out] F

[in] What is the recorded call for this compound in the test? [Cu+]
[out] F

[in] What is the recorded call for this compound in the test? C1COCO1
[out] F

[in] What is the recorded call for this compound in the test? Cc1cccc(O)c1
[out] F

[in] What is the recorded call for this compound in the test? O=S(=O)(O)CCCN1CCOCC1
[out] F

[in] What is the recorded call for this compound in the test? CC(=O)c1ccc(O)cc1
[out] F

[in] What is the recorded call for this compound in the test? CCNC(=S)NCC
[out] F

[in] What is the recorded call for this compound in the test? N#CCCCC(C#N)CCC#N (stereo unspecified)
[out] F

[in] What is the recorded call for this compound in the test? CC(C)Cc1ccccc1
[out] F

[in] What is the recorded call for this compound in the test? CC(C)=CC(=O)O
[out] F

[in] What is the recorded call for this compound in the test? N=C1N=C(N)c2ccccc21
[out] F

[in] What is the recorded call for this compound in the test? CC(C)C(=O)OCC=Cc1ccccc1
[out] F

[in] What is the recorded call for this compound in the test? COc1ccc(C(C)=O)cc1
[out] F

[in] What is the recorded call for this compound in the test? CC1(C)[C@H](C=C(Cl)Cl)[C@H]1C(=O)OCc1cccc(Oc2ccccc2)c1
[out] F

[in] What is the recorded call for this compound in the test? CCCO
[out] F

[in] What is the recorded call for this compound in the test? CCCCN(CCO)CCO
[out] F

[in] What is the recorded call for this compound in the test? OCCCO
[out] F

[in] What is the recorded call for this compound in the test? CCOC(=O)CC1(C)OCC(C)O1 (stereo unspecified)
[out] F

[in] What is the recorded call for this compound in the test? CC(C)(C)c1cc(CCC(=O)OCCSCCOC(=O)CCc2cc(C(C)(C)C)c(O)c(C(C)(C)C)c2)cc(C(C)(C)C)c1O
[out] F

[in] What is the recorded call for this compound in the test? CCn1cc(C(=O)O)c(=O)c2ccc(C)nc21
[out] F

[in] What is the recorded call for this compound in the test? CNC(=C[N+](=O)[O-])NCCSCc1ccc(CN(C)C)o1
[out] F

[in] What is the recorded call for this compound in the test? CC1=CC[C@@H](C(C)(C)O)CC1
[out] F

[in] What is the recorded call for this compound in the test? OC[C@@H](O)[C@H](O)[C@@H](O)[C@@H](O)CO
[out] F

[in] What is the recorded call for this compound in the test? Nc1ccc(N)c([N+](=O)[O-])c1
[out] F

[in] What is the recorded call for this compound in the test? CCCCCC(=O)O[C@]1(C(C)=O)CC[C@H]2[C@@H]3CCC4=CC(=O)CC[C@]4(C)[C@H]3CC[C@@]21C
[out] T

[in] What is the recorded call for this compound in the test? NS(=O)(=O)c1cc(C(=O)O)c(NCc2ccco2)cc1Cl
[out] F

[in] What is the recorded call for this compound in the test? CCCCCC1CCC(=O)O1 (stereo unspecified)
[out] F

[in] What is the recorded call for this compound in the test? CCC(C)C1CCCCC1=O (stereo unspecified)
[out] F

[in] What is the recorded call for this compound in the test? COC(=O)C(C)Oc1ccc(Oc2ncc(C(F)(F)F)cc2Cl)cc1 (stereo unspecified)
[out] F

[in] What is the recorded call for this compound in the test? CN1CCc2cccc3c2[C@H]1Cc1ccc(O)c(O)c1-3
[out] F

[in] What is the recorded call for this compound in the test? CC(C)(C)c1ccc(S)cc1
[out] F

[in] What is the recorded call for this compound in the test? CC(C)(O)CCc1ccccc1
[out] F

[in] What is the recorded call for this compound in the test? CC(C)COC(=O)c1ccccc1
[out] F
